# experimental.details: Biodistribution in cynomolgus monkey plasma assessed as unchanged drug level at 65 GBq/umol, iv after 45 mins
# Type: ADME, organism-based, Macaca fascicularis
# study.conditions: read-out: Activity
experimental.readout: remaining at 0.75 h (%)
Answer format: numeric, % implied, no suffix.

Noted for N#[11C]c1ccc(S(=O)(=O)/N=C(\N)N2C[C@H](c3ccccc3)C(c3ccc(Cl)cc3)=N2)cc1 : its remaining at 0.75 h reads 50

----------
# system.under.test: Cannabinoid receptor 1 (Homo sapiens, UniProt P21554)
# Sequence (P21554 whole entry): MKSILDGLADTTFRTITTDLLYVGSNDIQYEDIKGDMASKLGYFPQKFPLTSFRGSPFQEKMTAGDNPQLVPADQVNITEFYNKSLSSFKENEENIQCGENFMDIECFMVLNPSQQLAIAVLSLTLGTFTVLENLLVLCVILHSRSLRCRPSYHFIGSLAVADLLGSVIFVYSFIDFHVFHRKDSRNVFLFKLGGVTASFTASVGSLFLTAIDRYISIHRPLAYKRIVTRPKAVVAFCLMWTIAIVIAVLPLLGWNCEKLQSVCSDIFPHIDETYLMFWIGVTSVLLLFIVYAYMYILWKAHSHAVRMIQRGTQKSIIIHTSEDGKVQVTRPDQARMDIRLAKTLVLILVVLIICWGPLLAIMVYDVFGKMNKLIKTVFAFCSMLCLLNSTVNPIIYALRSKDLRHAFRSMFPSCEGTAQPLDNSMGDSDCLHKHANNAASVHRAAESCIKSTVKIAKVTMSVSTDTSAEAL
# experimental.details: Binding affinity to human CB1 receptor by [35S]GTPgammaS binding assay
pKi: −log10 of the molar value.
experimental.readout: pKi

Past entries and their recorded results:
The molecule N#Cc1ccc(S(=O)(=O)/N=C(\N)N2C[C@H](c3ccccc3)C(c3ccc(Cl)cc3)=N2)cc1 showed pKi equal to 9.30

pKi reading for N/C(=N\S(=O)(=O)c1ccc(I)cc1)N1C[C@@H](c2ccccc2)C(c2ccc(Cl)cc2)=N1 : 7.76

(a) N#Cc1ccc(S(=O)(=O)/N=C(\N)N2C[C@@H](c3ccccc3)C(c3ccc(Cl)cc3)=N2)cc1
(b) N/C(=N\S(=O)(=O)c1ccc(I)cc1)N1C[C@H](c2ccccc2)C(c2ccc(Cl)cc2)=N1
Data request: Name the one with the greater pKi value, either a or b as given. Kindly give the label for the entry you pick.
Data returned: b

----------
# system.under.test: Cannabinoid receptor 1 (Homo sapiens, UniProt P21554)
# experimental.details: Binding affinity to human CB1 receptor by [35S]GTPgammaS binding assay
experimental.readout: IC50 (nM)

Entry N/C(=N\S(=O)(=O)c1ccc(I)cc1)N1C[C@@H](c2ccccc2)C(c2ccc(Cl)cc2)=N1 : IC50 on Cannabinoid receptor 1 (Homo sapiens, UniProt P21554) = 104

(a) N#Cc1ccc(S(=O)(=O)/N=C(\N)N2C[C@H](c3ccccc3)C(c3ccc(Cl)cc3)=N2)cc1
(b) N#Cc1ccc(S(=O)(=O)/N=C(\N)N2C[C@@H](c3ccccc3)C(c3ccc(Cl)cc3)=N2)cc1
Data request: // select label with min value of measured IC50 from [ a , b ] In your reply, give the label of the chosen option.
Data returned: a

Every entry's value here was drawn from ChEMBL document CHEMBL1140076.
